Source listed as patent US20080234384A1.

# Subject Of Test: DMT1 (Homo sapiens, UniProt P49281)
# Sequence (P49281 whole entry): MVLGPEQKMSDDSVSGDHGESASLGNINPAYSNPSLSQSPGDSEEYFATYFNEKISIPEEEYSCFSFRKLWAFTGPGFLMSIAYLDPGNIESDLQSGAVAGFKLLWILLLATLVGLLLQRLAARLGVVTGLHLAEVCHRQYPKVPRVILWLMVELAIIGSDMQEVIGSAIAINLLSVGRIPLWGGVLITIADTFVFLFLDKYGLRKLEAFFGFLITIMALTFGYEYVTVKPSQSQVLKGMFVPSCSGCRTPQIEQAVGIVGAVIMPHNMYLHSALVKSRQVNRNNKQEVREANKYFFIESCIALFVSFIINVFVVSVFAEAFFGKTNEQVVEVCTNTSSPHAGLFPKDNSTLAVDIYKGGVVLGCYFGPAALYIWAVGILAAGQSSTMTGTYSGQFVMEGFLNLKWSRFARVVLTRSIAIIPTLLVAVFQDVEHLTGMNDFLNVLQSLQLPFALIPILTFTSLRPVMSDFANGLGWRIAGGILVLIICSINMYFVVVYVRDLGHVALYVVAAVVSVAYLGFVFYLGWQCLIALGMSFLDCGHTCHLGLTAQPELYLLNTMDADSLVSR
# Experiment Notes: DMT1 Activity Assay (In Vitro Assay)
# Condition Set: read-out: IC50 Activity Level
Where a name gives a salt, the structure may show the parent alone.
Attribute Measured: IC50

Solved entries:
N=C(N)SCCc1ccccc1Sc1ccccc1CSC(=N)N [Example 1.25, dihydrobromide]	≥ 1000 nM
N=C(N)SCc1cc(F)ccc1Sc1sccc1CSC(=N)N [Example 2.6, dihydrochloride]	≥ 1000 nM
N=C(N)SCc1cc(F)ccc1Oc1cc(Cl)ccc1CSC(=N)N [Example 2.30, dihydrobromide]	100 to 1000 nM
N=C(N)SCc1ccccc1Sc1ccc(F)cc1CSC(=N)N [Example 1.2, dihydrobromide]	100 to 1000 nM
N=C(N)SCc1cc(Cl)ccc1Sc1ccc(Cl)cc1CSC(=N)N [Example 1.22, dihydrobromide]	≥ 1000 nM
N#CN=C(N)CCCc1ccccc1Sc1ccccc1CCCC(N)=NC#N [Example 7.2]	≥ 1000 nM
N=C(N)SCc1ccccc1-c1ccccc1CSC(=N)N [Example 9]	≥ 1000 nM
N=C(N)SCc1ccccc1Sc1cc(Cl)ccc1CSC(=N)N [Example 1.11, dihydrobromide]	100 to 1000 nM
N=C(N)SCc1cccc(CSC(=N)N)c1-c1c(CSC(=N)N)cccc1CSC(=N)N [Example 2.23]	≥ 1000 nM
N=C(N)SCCc1cc(F)ccc1Sc1ccc(F)cc1CSC(=N)N [Example 1.23, dihydrobromide]	100 to 1000 nM

Exercise: Any idea what its IC50 is? The molecule is N=C(NN)SCc1ccccc1Sc1ccccc1CSC(=N)NN [Example 3, dihydrobromide]
Solution: ≥ 1000 nM

Exercise: What do we get for N=C(N)SCc1ccccc1Sc1ccc2ccccc2c1CSC(=N)N [Example 1.13, dihydrobromide] ?
Solution: ≥ 1000 nM

Exercise: What do we get for CN(C)S(=O)(=O)c1ccc(Sc2ccc(F)cc2CSC(=N)N)c(CSC(=N)N)c1 [Example 2.2, dihydrobromide] ?
Solution: 100 to 1000 nM

Exercise: What do we get for N=C(N)SCc1ccccc1Oc1cc(Cl)ccc1CSC(=N)N [Example 2.18, dihydrobromide] ?
Solution: ≥ 1000 nM

Exercise: What do we get for CS(=O)(=O)c1ccc(Sc2ccc(F)cc2CSC(=N)N)c(CSC(=N)N)c1 [Example 1.30, dihydrobromide] ?
Solution: 100 to 1000 nM

Exercise: What do we get for N=C(N)SCc1cc(F)ccc1Sc1c(CSC(=N)N)cccc1[N+](=O)[O-] [Example 1.17, dihydrobromide] ?
Solution: ≥ 1000 nM
